Measured values drawn from the supplement of paper PMC7877785 for this set.

assay: self-splicing fitness, log relative to wild type (ln ratio); higher = more splicing; Tetrahymena group I intron in knt gene, E. coli kanamycin selection, DiMSum; sequences stand for … in CUCUCU…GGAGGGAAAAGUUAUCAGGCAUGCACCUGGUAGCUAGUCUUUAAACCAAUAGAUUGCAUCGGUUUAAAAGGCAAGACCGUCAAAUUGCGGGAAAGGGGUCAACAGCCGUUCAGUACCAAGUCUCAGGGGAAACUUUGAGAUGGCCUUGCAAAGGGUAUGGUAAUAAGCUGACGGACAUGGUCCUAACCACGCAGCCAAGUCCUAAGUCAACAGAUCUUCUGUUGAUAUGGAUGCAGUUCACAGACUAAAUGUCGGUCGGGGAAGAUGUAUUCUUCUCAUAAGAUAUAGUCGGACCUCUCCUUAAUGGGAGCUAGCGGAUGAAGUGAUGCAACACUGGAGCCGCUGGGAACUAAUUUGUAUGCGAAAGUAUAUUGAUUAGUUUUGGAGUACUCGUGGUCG; conditions: 30 °C;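 note: selection with 25 µg/mL kanamycin versus none on LB agar overnight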
# maps each entry to its self-splicing fitness (ln)
Lab note: record just the number, no unit beside it.

Supply reported self-splicing fitness (ln) belonging to this sequence: AUUCAGCAAUAUUACGCUAG
-1.56

Determine its reported self-splicing fitness (ln): GGAGAGCAAUAUUACGCAAU
-3.02

Recall and state the measured self-splicing fitness (ln) for GACAAGCAAUAUUACGCCGG .
-2.63

Quickly give me recorded self-splicing fitness (ln) for UCAAAGCAAUAUUACGAAAU
-2.52

New cases:
Using the record for UGUGAGCAAUAUUACGCAAU , state its measured self-splicing fitness (ln).
-4.42

Tell me measured self-splicing fitness (ln) for GGAUAGCAAUAUUACGACAG please.
-4.21

Complete the entry with self-splicing fitness (ln) for GUUGAGCAAUAUUACGCUAG
-3.01

Quick one: give measured self-splicing fitness (ln) for GCCCAGCAAUAUUACGGCCU
-2.68

Answer with the recorded self-splicing fitness (ln) for the sequence listed here: AACUAGCAAUAUUACGAGCC
-0.792

Item CUCCAGCAAUAUUACGUCCG : provide self-splicing fitness (ln)
-2.63

Answer with the recorded self-splicing fitness (ln) for the sequence listed here: CACCAGCAAUAUUACGAGUA
-1.04

Fill in reported self-splicing fitness (ln) for this entry: GUCGAGCAAUAUUACGCCGU
-1.32

Could you please provide reported self-splicing fitness (ln) for GGAUAGCAAUAUUACGUGCA ? Thanks!
-1.3

Provide one value: measured self-splicing fitness (ln) of CUCUAGCAAUAUUACGAGGA
-2.32

Tell us which self-splicing fitness (ln) value is on record for CUACAGCAAUAUUACGCGCG
-1.36

Tell me self-splicing fitness (ln) reported for CUUGAGCAAUAUUACGUUAA
-2.47

----------
experiment: self-splicing fitness, log relative to wild type (ln ratio); higher = more splicing; Tetrahymena group I intron in knt gene, E. coli kanamycin selection, DiMSum; sequences stand for … in CUCUCU…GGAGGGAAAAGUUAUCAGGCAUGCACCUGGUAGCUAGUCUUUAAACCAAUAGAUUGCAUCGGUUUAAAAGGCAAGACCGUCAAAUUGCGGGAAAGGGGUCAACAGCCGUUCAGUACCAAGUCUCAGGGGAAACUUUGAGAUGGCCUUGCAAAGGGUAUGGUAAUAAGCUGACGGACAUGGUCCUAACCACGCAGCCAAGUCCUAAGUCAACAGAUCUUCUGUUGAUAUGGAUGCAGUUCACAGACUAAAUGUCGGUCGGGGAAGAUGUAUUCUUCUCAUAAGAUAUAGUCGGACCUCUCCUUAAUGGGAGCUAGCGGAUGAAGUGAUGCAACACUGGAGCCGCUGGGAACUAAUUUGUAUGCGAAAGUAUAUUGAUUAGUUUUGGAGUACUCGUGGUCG; conditions: 30 °C
PROPERTY LABEL: self-splicing fitness (ln)
Give only the figure.

Tell us which self-splicing fitness (ln) value is on record for CUAGAGCAAUAUUACGCAAC
-1.32

Determine from records and report self-splicing fitness (ln) for GUGUAGCAAUAUUACGUUAG
-2.45

# return recorded self-splicing fitness (ln) for input UCUAAGCAAUAUUACGAUGG
-0.0699

Further cases:
Hello, please tell me recorded self-splicing fitness (ln) for this one: ACUUAGCAAUAUUACGUGCC
-0.96

Look up self-splicing fitness (ln) of AUCAAGCAAUAUUACGCUCC and report it.
-0.122

// Input: UUAAAGCAAUAUUACGUAAA . Output its self-splicing fitness (ln) only.
-1.16

For GGCCAGCAAUAUUACGUGCG , write its self-splicing fitness (ln).
-1.17

----------
assay: self-splicing fitness, log relative to wild type (ln ratio); higher = more splicing; Tetrahymena group I intron in knt gene, E. coli kanamycin selection, DiMSum; sequences stand for … in CUCUCU…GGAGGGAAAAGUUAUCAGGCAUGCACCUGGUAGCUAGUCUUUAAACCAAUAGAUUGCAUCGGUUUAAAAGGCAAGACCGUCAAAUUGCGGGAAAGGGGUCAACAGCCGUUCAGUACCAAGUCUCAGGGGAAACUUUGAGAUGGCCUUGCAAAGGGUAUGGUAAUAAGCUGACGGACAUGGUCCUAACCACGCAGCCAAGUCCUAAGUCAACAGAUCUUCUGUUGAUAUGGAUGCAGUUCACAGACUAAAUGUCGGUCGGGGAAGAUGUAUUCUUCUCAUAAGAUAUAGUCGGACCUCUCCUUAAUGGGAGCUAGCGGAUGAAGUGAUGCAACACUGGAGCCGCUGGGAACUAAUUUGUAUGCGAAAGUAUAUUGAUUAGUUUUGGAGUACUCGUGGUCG; conditions: 30 °C
PROPERTY LABEL: self-splicing fitness (ln)
The answer should be written as a number, with no unit following it.

Solved entries (count: 4):
Specify reported self-splicing fitness (ln) for the sequence shown: AGCUAGCAAUAUUACGUCGU
-1.38

Complete the entry with self-splicing fitness (ln) for AUCCAGCAAUAUUACGCGUG
-2.3

State, in one line, measured self-splicing fitness (ln) of AAGCAGCAAUAUUACGAGGU
-3.55

Using known records, supply self-splicing fitness (ln) for ACCAAGCAAUAUUACGCGGA
-1.11

Others:
Annotate the sequence GCACAGCAAUAUUACGGCAC with its measured self-splicing fitness (ln).
-0.752

Check the records and state self-splicing fitness (ln) for UGCUAGCAAUAUUACGCGGC
-3.02

Report measured self-splicing fitness (ln); entry is ACCGAGCAAUAUUACGGAAG
-4.18

Dear colleague, please send me the reported self-splicing fitness (ln) for GACAAGCAAUAUUACGUAGC when you can.
-1.48

Determine its reported self-splicing fitness (ln): ACUCAGCAAUAUUACGUUAC
-4.33

State its self-splicing fitness (ln): CUGUAGCAAUAUUACGCACU
-1.84

Specify self-splicing fitness (ln) for CAGUAGCAAUAUUACGAAAA and stop.
-3.58

State its self-splicing fitness (ln) for this sequence: AUACAGCAAUAUUACGCACA
-0.789

Give the measured self-splicing fitness (ln) for CUCUAGCAAUAUUACGGUAA
-2.38

Please report self-splicing fitness (ln) for the following sequence: GUUCAGCAAUAUUACGUCAG
-3.88

Give recorded self-splicing fitness (ln). ACAAAGCAAUAUUACGGAUA
-2.14

Identify measured self-splicing fitness (ln) corresponding to UACCAGCAAUAUUACGAAUC
-2.37

----------
assay: self-splicing fitness, log relative to wild type (ln ratio); higher = more splicing; Tetrahymena group I intron in knt gene, E. coli kanamycin selection, DiMSum; sequences stand for … in CUCUCU…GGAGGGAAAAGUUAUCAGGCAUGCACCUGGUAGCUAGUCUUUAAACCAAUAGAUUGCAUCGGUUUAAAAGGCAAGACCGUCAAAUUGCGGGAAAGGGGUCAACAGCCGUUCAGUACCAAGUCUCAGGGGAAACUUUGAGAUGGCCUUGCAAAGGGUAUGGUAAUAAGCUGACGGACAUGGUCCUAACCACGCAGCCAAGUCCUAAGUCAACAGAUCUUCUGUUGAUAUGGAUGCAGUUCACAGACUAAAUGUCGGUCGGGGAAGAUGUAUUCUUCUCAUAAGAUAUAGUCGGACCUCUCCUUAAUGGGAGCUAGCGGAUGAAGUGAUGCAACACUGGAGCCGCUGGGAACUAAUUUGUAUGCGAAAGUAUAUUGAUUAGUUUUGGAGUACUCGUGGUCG; details: 37 °C
# self-splicing fitness (ln) listing for each entry below
Enter a number only.

The examples below pair each entry with its known result.
Give the measured self-splicing fitness (ln) for CUCUAGCAAUAUUACGAGGA
-1.59

Quick one: give measured self-splicing fitness (ln) for GCGAAGCAAUAUUACGCUGA
-1.5

Determine from records and report self-splicing fitness (ln) for CCAGAGCAAUAUUACGCCCG
-1.17

Quick one: give measured self-splicing fitness (ln) for GCCGAGCAAUAUUACGUAAC
-0.977

Determine from records and report self-splicing fitness (ln) for GUGUAGCAAUAUUACGCUUG
-1.57

Provide self-splicing fitness (ln) value for the following sequence: UGCCAGCAAUAUUACGCUAU
-1.13

Others:
Give me measured self-splicing fitness (ln), please, for this sequence: UCCGAGCAAUAUUACGCUGG
-1.56

Give the reported self-splicing fitness (ln) for this sequence. ACCGAGCAAUAUUACGGCGC
-0.396

Find the measured self-splicing fitness (ln) of UUCCAGCAAUAUUACGCAGU and report it.
-2.79

Using known records, supply self-splicing fitness (ln) for AAGAAGCAAUAUUACGUAGA
-1.01

Fill in self-splicing fitness (ln) for record CCAGAGCAAUAUUACGUACU
-1.97

# return recorded self-splicing fitness (ln) for input GUCGAGCAAUAUUACGUAUU
-0.948

Quote self-splicing fitness (ln) reported for GACCAGCAAUAUUACGCCUU please.
0.293
